Test: Oral LD50 in mice
Details: mouse, in vivo, dosed orally
property measured: LD50
Form entry: enter the amount, then its unit.

Looking for the measured LD50 of O=C1COc2ccccc2N1CC1CNCCO1 (stereo not shown) , can you help?
800 mg/kg
